Biological target: T1, Extracellular domain of human PD1 (huPD1-ECD) (human, UniProt Q15116 25-169, biotinylated in the ligand inhibition assay (sites not given))
T1 construct: Expressed with a hexahistidine tag or as Fc fusion; also called biotinylated PD-1
T1 sequence (Q15116 25-169 limits assumed): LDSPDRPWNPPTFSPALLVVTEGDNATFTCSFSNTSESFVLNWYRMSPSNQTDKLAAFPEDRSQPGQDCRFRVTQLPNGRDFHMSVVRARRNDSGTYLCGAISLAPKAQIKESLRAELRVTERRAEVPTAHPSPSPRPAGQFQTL
Experiment: SPR ProteOn, captured mAb, huPD1-ECD analyte;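 note: SPR on ProteOn XPR36, antibodies captured by anti-IgG Fc on a GLC chip, data fitted with a Langmuir 1:1 model to give on-rate, off-rate and equilibrium KD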
MEASURE: koff (s⁻¹)
The figure you give is taken to be in s⁻¹; do not add the unit.

PD1B200 (antibody, V domains shown, also called PD1H164/PD1L168) VH: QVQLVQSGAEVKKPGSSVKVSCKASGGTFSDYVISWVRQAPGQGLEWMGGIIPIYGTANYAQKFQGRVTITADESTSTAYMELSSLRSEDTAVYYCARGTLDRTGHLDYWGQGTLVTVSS VL: EIVLTQSPATLSLSPGERATLSCRASQSVDNYLAWYQQKPGQAPRLLIHDASNRATGIPARFSGSGSGTDFTLTISSLEPEDFAVYYCQQRSAWPLTFGQGTKVEIK	0.00122

Now for the binder whose koff we want.
Problem: Look up koff: PD1B197 (antibody, V domains shown, also called PD1H163/PD1L185) VH: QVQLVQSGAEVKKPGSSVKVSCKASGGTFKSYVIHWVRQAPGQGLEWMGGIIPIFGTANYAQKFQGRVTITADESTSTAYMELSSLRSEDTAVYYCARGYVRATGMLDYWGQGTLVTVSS VL: EIVLTQSPATLSLSPGERATLSCRASQSVSNYLAWYQQKPGQAPRLLIYDASNRATGIPARFSGSGSGTDFTLTISSLEPEDFAVYYCQQRAYWPLTFGQGTKVEIK
Solution: 0.00324
